Documented pEC50 across a set of compounds
Tested on: bloodstream forms of Trypanosoma brucei
Assay: Resazurin cell viability assay, EC50 determinations against T. brucei
Assay type: cell-based, T. b. brucei (strain 427)
Settings: Trypanosoma brucei, 72 h, read-out: EC50 vs. T. brucei
pEC50: −log10 of the molar value. Counter-ions that a name gives are not always drawn.
quantity name: pEC50

INSERT INTO assay_data (compound, result) VALUES
  ('Clc1ccc(C(c2ccc(Cl)cc2)n2cc[n+](CC(OCc3ccc(Cl)cc3Cl)c3ccc(Cl)cc3Cl)c2)cc1 (stereo not shown) [Calmidazolium chloride]', 6.29),
  ('c1ccc2c(c1)[I+]c1ccccc1-2 [Diphenyleneiodonium chloride]', 6.92),
  ('CCN(CC)CCCC(C)Nc1c2ccc(Cl)cc2nc2ccc(OC)cc12 (stereo not shown) [Quinacrine dihydrochloride]', 6.42),
  ('O=C1Cc2c([nH]c3ccc([N+](=O)[O-])cc23)-c2ccccc2N1', 6.40);
